Source listed as paper PMC11480844.

B1: H2-Kb / Ed8 (parent complex)
chain 1: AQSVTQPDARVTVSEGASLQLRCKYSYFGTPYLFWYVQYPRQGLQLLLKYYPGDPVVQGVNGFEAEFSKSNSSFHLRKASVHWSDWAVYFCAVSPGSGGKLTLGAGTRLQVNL
chain 2: DSGVVQSPRHIIKEKGGRSVLTCIPISGHSNVVWYQQTLGKELKFLIQHYEKVERDKGFLPSRFSVQQFDDYHSEMNMSALELEDSAMYFCASSPRASNYTFGSGTRLLVI
chain 3: not shown
chain 4: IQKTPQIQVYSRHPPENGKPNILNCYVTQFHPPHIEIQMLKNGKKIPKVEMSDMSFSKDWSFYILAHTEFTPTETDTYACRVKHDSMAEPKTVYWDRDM
chain 5: SIINFEKL

Variants of: B1
experimentNotes: % of reporter cells activated (NFAT-GFP), raw; further: test concentration or dose not given here
measuredProperty: ratio to parent
One number for each entry.

Answered examples (8):
* chain 5 S1E | 1.28
* chain 5 F5H | 1.23
* chain 5 L8F | 1.12
* chain 5 K7Q | 0.662
* chain 5 I3M | 1.27
* chain 5 F5K | 1.02
* chain 5 I2V | 1.41
* chain 5 I2P | 1.4

// for each variant in input: emit ratio to parent
1. chain 5 E6N
2. chain 5 F5V
3. chain 5 S1V
4. chain 5 L8A

Response line:
1. 0.733
2. 1.09
3. 1.15
4. 1.05

// for each variant in input: emit ratio to parent
1. chain 5 K7G
2. chain 5 E6D
3. chain 5 K7F
4. chain 5 L8P
5. chain 5 K7M
6. chain 5 L8T
7. chain 5 N4Y
8. chain 5 S1H

Response line:
0.616
1.13
0.393
1.21
0.578
1.1
0.00468
1.3

// for each variant in input: emit ratio to parent
1. chain 5 S1C
2. chain 5 F5C
3. chain 5 I3W

Response line:
1. 1.03
2. 1.3
3. 1.03

// for each variant in input: emit ratio to parent
1. chain 5 E6R
2. chain 5 S1T
3. chain 5 N4L

Response line:
1. 0.459
2. 1.37
3. 0.84

// for each variant in input: emit ratio to parent
1. chain 5 I2T
2. chain 5 S1P
3. chain 5 I2S

Response line:
[1.43, 1.13, 1.37]

// for each variant in input: emit ratio to parent
1. chain 5 F5T
2. chain 5 L8G
3. chain 5 I3K
4. chain 5 I2H
5. chain 5 F5A
6. chain 5 S1N

Response line:
1.32
1.2
1.03
1.13
1.24
0.821

// for each variant in input: emit ratio to parent
1. chain 5 N4G
2. chain 5 N4S
3. chain 5 S1K

Response line:
1. 0.0339
2. 0.216
3. 1.02

// for each variant in input: emit ratio to parent
1. chain 5 K7P
2. chain 5 S1R
3. chain 5 E6W
4. chain 5 I2Y
5. chain 5 K7L
6. chain 5 I3R

Response line:
1. 0.689
2. 0.799
3. 0.012
4. 1.06
5. 0.815
6. 0.541

// for each variant in input: emit ratio to parent
1. chain 5 I3E
2. chain 5 I3A

Response line:
1. 1.17
2. 1.14
